All figures here come from ChEMBL document CHEMBL1144680.

Target: Tyrosine-protein kinase ITK/TSK (Homo sapiens, UniProt Q08881)
Sequence (Q08881 whole entry): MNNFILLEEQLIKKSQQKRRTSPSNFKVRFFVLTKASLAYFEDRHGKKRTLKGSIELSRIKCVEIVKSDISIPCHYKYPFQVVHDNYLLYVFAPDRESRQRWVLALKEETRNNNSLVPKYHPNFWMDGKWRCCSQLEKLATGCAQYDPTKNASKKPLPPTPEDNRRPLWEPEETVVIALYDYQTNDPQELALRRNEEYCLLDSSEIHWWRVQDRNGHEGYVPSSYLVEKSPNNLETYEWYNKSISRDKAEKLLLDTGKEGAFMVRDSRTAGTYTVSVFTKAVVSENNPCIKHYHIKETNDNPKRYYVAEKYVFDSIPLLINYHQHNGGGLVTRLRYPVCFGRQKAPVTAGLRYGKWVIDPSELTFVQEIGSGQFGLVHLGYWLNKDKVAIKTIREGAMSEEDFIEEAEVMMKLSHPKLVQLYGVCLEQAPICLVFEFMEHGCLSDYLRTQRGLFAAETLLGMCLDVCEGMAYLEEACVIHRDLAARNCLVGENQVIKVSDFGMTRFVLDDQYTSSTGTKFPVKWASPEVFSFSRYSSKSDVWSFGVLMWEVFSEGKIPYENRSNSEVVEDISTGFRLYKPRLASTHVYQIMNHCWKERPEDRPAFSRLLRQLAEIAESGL
pIC50: −log10 of the molar value.
assay.readout: pIC50

Looking up Cc1ccc(NC(=O)c2cccc(C(F)(F)F)c2)cc1C(=O)Nc1cnc(Nc2ccc(N3CCN(C)CC3)cc2)nc1 , I found its pIC50 recorded as < 4.60
